target: Cytochrome P450 1A2 (Homo sapiens); experiment: p450-cyp1a2 (AID 410); details: recombinant CYP1A2, luciferin-ME demethylation, luminescence; series mostly up to 57 µM
Records with an inconclusive call do not appear. Calls of active or inactive are those of the source. Calls come from the whole dose curve.
Choose one outcome from this list and give only that: 1 (yes) = active, 0 (no) = inactive

MOLECULE	STUDY_SYSTEM	ANSWER_LABEL
COC(=O)[C@@]1(Cc2ccc(F)cc2)[C@H]2c3cc(C(=O)N(C)C)n(Cc4ccc(C)c(F)c4F)c3C[C@H]2CN1C(=O)c1ccccc1	Cytochrome P450 1A2 (Homo sapiens)	0 (no)
C=C1CC[C@H]2C(C)(C)[C@H](O)CC[C@]2(C)[C@@H]1COc1ccc2ccc(=O)oc2c1	Cytochrome P450 1A2 (Homo sapiens)	1 (yes)
CC(C)[C@@H](CC(=O)N[C@@H]1CCCC[C@H]1C(=O)N[C@H](CC(=O)N[C@@H](CCC(=O)O)CC(=O)O)Cc1c[nH]c2ccccc12)NC(=O)C[C@H](Cc1c[nH]c2ccccc12)NC(=O)[C@@H]1CCCC[C@H]1N	Cytochrome P450 1A2 (Homo sapiens)	0 (no)
CC(C)[C@@H](CC(=O)N[C@@H]1CCNC[C@H]1C(=O)N[C@H](CC(=O)N[C@@H](CCC(=O)O)CC(=O)O)Cc1ccccc1)NC(=O)C[C@H](CO)NC(=O)[C@@H]1CNCC[C@H]1N	Cytochrome P450 1A2 (Homo sapiens)	0 (no)
O[Si@](CCCN1CCCCC1)(c1ccc(F)cc1)C1CCCCC1	Cytochrome P450 1A2 (Homo sapiens)	0 (no)
NCCC[C@@H](CC(=O)N[C@@H]1CCNC[C@H]1C(=O)N[C@H](CC(=O)N[C@@H](CCC(=O)O)CC(=O)O)Cc1c[nH]c2ccccc12)NC(=O)C[C@H](CO)NC(=O)[C@@H]1CNCC[C@H]1N	Cytochrome P450 1A2 (Homo sapiens)	0 (no)

## Task Write down the call the test reported for this molecule. Item: CCCC1(C(=O)OC)C=C2C(=C(C(C)C)C(=O)C2C)CN1 (configuration not stated)
## Result 0 (no)
